Entry source: patent US20180230143A1

- ASSAY TARGET: RUNX1-BCR protein (Homo sapiens, UniProt P11274+Q01196)
- Construct: replacing the NHR2 domain of the construct with the homologous BCR tetramerization domain (RUNX1-BCR protein); His6 (C); made in house; host or cells: E. coli BL21(DE3)
- Sequence (Q01196+P11274 fused): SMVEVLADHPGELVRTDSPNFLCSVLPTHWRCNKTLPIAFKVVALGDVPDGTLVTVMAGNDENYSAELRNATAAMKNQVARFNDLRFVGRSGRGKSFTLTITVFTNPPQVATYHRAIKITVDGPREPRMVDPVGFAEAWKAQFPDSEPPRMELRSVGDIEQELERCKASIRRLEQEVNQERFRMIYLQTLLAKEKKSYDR
- EXPERIMENTAL PROTOCOL: ELISA: tetramer-dependent binding of RUNX1-BCR protein to immobilized RUNX3 oligonucleotide (selectivity control)
- Type: biochemical
- PROTOCOL CONDITIONS: relative inhibition at 1 mM inhibitor concentration; RUNX1-BCR; read-out: ELISA Inhibition [%] BCR
ATTRIBUTE MEASURED: inhibition at 1000 µM (%)
All answers are understood in %, so give the number only.

In: Tell me the measured inhibition at 1000 µM of Cc1oc(C(=O)O)cc1CSCc1cc(C(=O)O)oc1C , please.
Out: 20.7

In: Tell me the measured inhibition at 1000 µM of COc1ccc(OC)c2[nH]c(C(=O)NCC3(CC(=O)O)CCCCC3)cc12 , please.
Out: 3.9

In: Tell me the measured inhibition at 1000 µM of O=C(CSc1nc2ccccc2[nH]1)Nc1ccc(Cl)c(C(=O)O)c1 , please.
Out: 35.4

In: Tell me the measured inhibition at 1000 µM of Cc1c(CC(=O)NCCC(=O)O)c(=O)oc2c(C)c3occ(C(C)(C)C)c3cc12 , please.
Out: 15.9

---

- ASSAY TARGET: RUNX1-NHR2 protein (Homo sapiens, UniProt Q01196+Q06455)
- Construct: the wild type NHR2 tetramerization domain or the homologous BCR tetramerization domain (highlighted) are optionally enclosed by an N-terminal RUNX1 domain; His6 (C); made in house; host or cells: E. coli BL21(DE3)
- Sequence (Q01196+Q06455 fused): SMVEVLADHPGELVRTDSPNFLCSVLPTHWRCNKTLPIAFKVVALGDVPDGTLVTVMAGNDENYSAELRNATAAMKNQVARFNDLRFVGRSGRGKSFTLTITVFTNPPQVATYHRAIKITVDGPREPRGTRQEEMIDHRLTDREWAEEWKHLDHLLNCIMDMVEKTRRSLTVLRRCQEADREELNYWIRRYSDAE
- EXPERIMENTAL PROTOCOL: ABCD (avidin, biotin, complex, DNA) assay with RUNX1-NHR2 protein
- Assay type: biochemical
- PROTOCOL CONDITIONS: relative inhibition at 1 mM inhibitor concentration; RUNX1-NHR2 protein; read-out: ABCD Inhibition [%] NHR2
inhibition at 1000 µM by entry:
All answers are understood in %, so give the number only.

Reference set, count: 5
> print(dat)
                                   compound     attribute.measured  reported.value
1  Cc1c(C(=O)O)[nH]c(/C=C/C(=O)O)nc1=O [Compound 7.38, reference compound]  inhibition at 1000 µM            20.1
2  COc1ccc(OC)c2[nH]c(C(=O)NCC3(CC(=O)O)CCCCC3)cc12 [Compound 5.18]  inhibition at 1000 µM              83
3  Cc1c(CC(=O)NCCC(=O)O)c(=O)oc2c(C)c3occ(C(C)(C)C)c3cc12 [Compound 5.17]  inhibition at 1000 µM            89.5
4  O=C(O)COc1cccc(OCC(=O)O)c1 [Compound 7.4]  inhibition at 1000 µM            47.4
5  Cc1oc(C(=O)O)cc1CSCc1cc(C(=O)O)oc1C [Compound 5.9]  inhibition at 1000 µM            52.5

In: Tell me the measured inhibition at 1000 µM of O=C(O)c1ccccc1OCc1cn2ccccc2n1 [Compound 2b] , please.
Out: 49.4

In: Tell me the measured inhibition at 1000 µM of O=C(CSc1nc2ccccc2[nH]1)Nc1ccc(Cl)c(C(=O)O)c1 [Compound 5.4] , please.
Out: 63.9

In: Tell me the measured inhibition at 1000 µM of Cc1ccc(OCC(=O)O)c(OCC(=O)O)c1 [Compound 7.3] , please.
Out: 57.7

---

inhibition at 1000 µM by entry:
- ASSAY TARGET: RUNX1-BCR protein (Homo sapiens, UniProt P11274+Q01196)
- Construct: replacing the NHR2 domain of the construct with the homologous BCR tetramerization domain (RUNX1-BCR protein); His6 (C); made in house; host or cells: E. coli BL21(DE3)
- EXPERIMENTAL PROTOCOL: ABCD (avidin, biotin, complex, DNA) assay with RUNX1-BCR protein
- Type: biochemical
- PROTOCOL CONDITIONS: relative inhibition at 1 mM inhibitor concentration; RUNX1-BCR; read-out: ABCD Inhibition [%] BCR
All answers are understood in %, so give the number only.

Reference set, count: 2
> print(dat)
                                   compound  unit.abbrev  reported.value
1  O=C(O)COc1cccc(OCC(=O)O)c1 [Compound 7.4]            %             6.1
2  O=C(CSc1nc2ccccc2[nH]1)Nc1ccc(Cl)c(C(=O)O)c1 [Compound 5.4]            %            -3.3

Now for a further compound.
In: Tell me the measured inhibition at 1000 µM of O=C(O)c1ccccc1OCc1cn2ccccc2n1 [Compound 2b] , please.
Out: 11.8

---

- ASSAY TARGET: RUNX1-NHR2 protein (Homo sapiens, UniProt Q01196+Q06455)
- Construct: the wild type NHR2 tetramerization domain or the homologous BCR tetramerization domain (highlighted) are optionally enclosed by an N-terminal RUNX1 domain; His6 (C); made in house; host or cells: E. coli BL21(DE3)
- EXPERIMENTAL PROTOCOL: ELISA: tetramer-dependent binding of RUNX1-NHR2 protein to immobilized RUNX3 oligonucleotide
- Type: biochemical
- PROTOCOL CONDITIONS: inhibition of tetramerization of the RUNX1-NHR2 protein
- Method: Preferably, for enzyme-linked immunosorbent assays (ELISA), wells of a 96 well plate were coated with 100 ng streptavidin (Dianova) in PBS over night at 4° C. […] Binding of RUNX1-containing proteins to the R3 oligonucleotide was detected with a primary anti-myc antibody (9E10, Santa Cruz) and a secondary HRP-coupled antibody (donkey anti-mouse IgG-HRP, Santa Cruz). […] Absorption at 450 nm and 650 nm was measured with the Spectra Max 340, Molecular Devices. […]
ATTRIBUTE MEASURED: IC50 (µM)
All answers are understood in µM, so give the number only.

In: Tell me the measured IC50 of Ac-VLRRCQEADREELNYWIR-NH2 [P1, reference compound] , please.
Out: 460

---

- ASSAY TARGET: NHR2 protein (Homo sapiens)
- Construct: the wild type NHR2 tetramerization domain or the homologous BCR tetramerization domain (highlighted) are optionally enclosed by an N-terminal RUNX1 domain; His6 (C); made in house; host or cells: E. coli BL21(DE3)
- Sequence (Q06455 334-400): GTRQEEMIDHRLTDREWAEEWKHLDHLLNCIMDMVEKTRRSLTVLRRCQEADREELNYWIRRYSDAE
- EXPERIMENTAL PROTOCOL: BS3 cross-linking assay of NHR2 oligomers
- Format: biochemical
- PROTOCOL CONDITIONS: read-out: IC50 of inhibition of NHR2 tetramerization (cross-linking)
ATTRIBUTE MEASURED: pIC50
# reply with the number alone; pIC50 is -log10 of concentration in mol/L

In: Tell me the measured pIC50 of Ac-VLRRCQEADREELNYWIR-NH2 [P1, reference compound] , please.
Out: 3.60

---

- ASSAY TARGET: RUNX1-NHR2 protein (Homo sapiens, UniProt Q01196+Q06455)
- Construct: the wild type NHR2 tetramerization domain or the homologous BCR tetramerization domain (highlighted) are optionally enclosed by an N-terminal RUNX1 domain; His6 (C); made in house; host or cells: E. coli BL21(DE3)
- EXPERIMENTAL PROTOCOL: ELISA: tetramer-dependent binding of RUNX1-NHR2 protein to immobilized RUNX3 oligonucleotide
- Type: biochemical
- PROTOCOL CONDITIONS: inhibition of tetramerization of the RUNX1-NHR2 protein
ATTRIBUTE MEASURED: IC50

In: Tell me the measured IC50 of Cc1c(C(=O)O)[nH]c(/C=C/C(=O)O)nc1=O [Compound 7.38, reference compound] , please.
Out: > 2000 µM
